biological target: Human Serum Albumin (HSA) (Homo sapiens, UniProt P02768); construct: HSA (≥96%) and six PFAS were all purchased from Aladdin Chemicals (Shanghai, China); purchased Aladdin Chemicals (Shanghai, China); assay: Fluorescence quenching of HSA by PFAS (Stern–Volmer, double logarithmic and Van't Hoff analysis); format: binding; details: T = 310 K
Sequence (P02768 25-609): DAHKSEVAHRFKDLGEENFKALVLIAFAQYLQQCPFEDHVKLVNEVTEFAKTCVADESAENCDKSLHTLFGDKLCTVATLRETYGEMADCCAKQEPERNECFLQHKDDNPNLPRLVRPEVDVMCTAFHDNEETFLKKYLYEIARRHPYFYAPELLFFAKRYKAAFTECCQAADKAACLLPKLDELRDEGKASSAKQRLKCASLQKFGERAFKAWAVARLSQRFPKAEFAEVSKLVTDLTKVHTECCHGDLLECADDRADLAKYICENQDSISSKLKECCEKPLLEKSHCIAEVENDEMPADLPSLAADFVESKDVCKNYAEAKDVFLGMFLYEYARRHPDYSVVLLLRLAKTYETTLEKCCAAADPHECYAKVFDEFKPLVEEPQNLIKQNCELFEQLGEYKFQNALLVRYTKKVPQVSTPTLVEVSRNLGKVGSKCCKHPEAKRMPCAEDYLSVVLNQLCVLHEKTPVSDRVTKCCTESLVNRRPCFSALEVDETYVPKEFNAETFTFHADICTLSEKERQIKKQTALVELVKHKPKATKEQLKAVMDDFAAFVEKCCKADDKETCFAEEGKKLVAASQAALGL
Listed here are molecules together with their documented KSV (Stern–Volmer quenching constant).
property-label: KSV (Stern–Volmer quenching constant)

{"molecule": "O=C(O)C(F)(F)C(F)(F)C(F)(F)C(F)(F)C(F)(F)C(F)(F)F", "property-label": "KSV (Stern–Volmer quenching constant)", "observed-measurement": "0.32 ± 0.04 × 10^4 L·mol^−1"}
{"molecule": "O=C(O)C(F)(OC(F)(F)C(F)(OC(F)(F)C(F)(F)C(F)(F)F)C(F)(F)F)C(F)(F)F (stereo not drawn)", "property-label": "KSV (Stern–Volmer quenching constant)", "observed-measurement": "1.98 ± 0.08 × 10^4 L·mol^−1"}
{"molecule": "O=C(O)C(F)(F)C(F)(F)C(F)(F)C(F)(F)C(F)(F)C(F)(F)C(F)(F)C(F)(F)F", "property-label": "KSV (Stern–Volmer quenching constant)", "observed-measurement": "1.27 ± 0.04 × 10^4 L·mol^−1"}
{"molecule": "O=C(O)C(F)(F)C(F)(F)C(F)(F)C(F)(F)C(F)(F)C(F)(F)C(=O)O", "property-label": "KSV (Stern–Volmer quenching constant)", "observed-measurement": "0.45 ± 0.05 × 10^4 L·mol^−1"}
{"molecule": "O=C(O)C(F)(F)C(F)(F)C(F)(F)C(F)(F)C(F)(F)C(F)(F)C(F)(F)F", "property-label": "KSV (Stern–Volmer quenching constant)", "observed-measurement": "1.47 ± 0.11 × 10^4 L·mol^−1"}
{"molecule": "O=C(O)C(F)(F)OC(F)(F)C(F)(F)OC(F)(F)C(F)(F)OC(F)(F)F", "property-label": "KSV (Stern–Volmer quenching constant)", "observed-measurement": "0.87 ± 0.04 × 10^4 L·mol^−1"}

----------
biological target: Human Serum Albumin (HSA) (Homo sapiens); construct: HSA (≥96%) and six PFAS were all purchased from Aladdin Chemicals (Shanghai, China); purchased Aladdin Chemicals (Shanghai, China); assay: Fluorescence quenching of HSA by PFAS (Stern–Volmer, double logarithmic and Van't Hoff analysis); assay type: binding; details: T = 310 K; τ0 taken as 10^−8 s
Listed here are molecules together with their documented Kq (quenching rate constant).
property-label: Kq (quenching rate constant)

{"molecule": "O=C(O)C(F)(F)C(F)(F)C(F)(F)C(F)(F)C(F)(F)C(F)(F)C(F)(F)C(F)(F)F [PFNA, Perfluorononanoic Acid]", "system-under-test": "Human Serum Albumin (HSA) (Homo sapiens)", "observed-measurement": "1.27 ± 0.04 × 10^12 L·mol^−1·s^−1"}
{"molecule": "O=C(O)C(F)(F)C(F)(F)C(F)(F)C(F)(F)C(F)(F)C(F)(F)C(F)(F)F [PFOA, Perfluorooctanoic Acid]", "system-under-test": "Human Serum Albumin (HSA) (Homo sapiens)", "observed-measurement": "1.47 ± 0.11 × 10^12 L·mol^−1·s^−1"}
{"molecule": "O=C(O)C(F)(F)C(F)(F)C(F)(F)C(F)(F)C(F)(F)C(F)(F)F [PFHpA, Perfluoroheptanoic Acid]", "system-under-test": "Human Serum Albumin (HSA) (Homo sapiens)", "observed-measurement": "0.32 ± 0.04 × 10^12 L·mol^−1·s^−1"}
{"molecule": "O=C(O)C(F)(F)C(F)(F)C(F)(F)C(F)(F)C(F)(F)C(F)(F)C(=O)O [DFSA, Dodecafluorosuberic Acid]", "system-under-test": "Human Serum Albumin (HSA) (Homo sapiens)", "observed-measurement": "0.45 ± 0.05 × 10^12 L·mol^−1·s^−1"}
{"molecule": "O=C(O)C(F)(F)OC(F)(F)C(F)(F)OC(F)(F)C(F)(F)OC(F)(F)F [PFO3DA, Perfluoro-3,6,9-trioxadecanoic Acid]", "system-under-test": "Human Serum Albumin (HSA) (Homo sapiens)", "observed-measurement": "0.87 ± 0.04 × 10^12 L·mol^−1·s^−1"}
{"molecule": "O=C(O)C(F)(OC(F)(F)C(F)(OC(F)(F)C(F)(F)C(F)(F)F)C(F)(F)F)C(F)(F)F (stereo not drawn) [HFPO-TA]", "system-under-test": "Human Serum Albumin (HSA) (Homo sapiens)", "observed-measurement": "1.98 ± 0.08 × 10^12 L·mol^−1·s^−1"}
